FYI, the data here is from PubChem BioAssay (NCI).

Tested on: MOLT-4 leukemia
Assay: NCI-60 one-dose screen, 48 h (100 = growth as untreated, 0 = no growth, -100 = all killed)
Conditions: 10 µM unless noted
About 83,000 compounds went through this panel and 20% of them were active in at least one assay; those are over-represented in the sample as a whole.
Entries whose growth is below 50% take True; entries at or above 50% take False.

Quick check: growth of CCN(CC)CCCNc1c2ccc(Cl)cc2nc2ccc(OC)cc12 under 50%?
True

Also need C=C(C)C(C(=O)OCC)(C(=O)OCC)C(C)C , thanks.
False

Also need COc1ccc2cc(C(C)C(=O)Nc3ccc(S(=O)(=O)Nc4cc(C)on4)cc3)ccc2c1 (stereo not drawn) , thanks.
False

Also need C/C=C(/C)C(=O)OC1C=C(CO)C(=O)C(OC(=O)C(C)(O)C(C)Cl)C1C(C)C (stereo not drawn) , thanks.
True

Also need N=C(N)c1ccc(-c2ccc(-c3cc(Cl)cc(Cl)c3)s2)cc1 , thanks.
True

Also need Cc1nc2c(nnn2-c2ccccc2)c2nc(-c3ccc(Cl)cc3)oc(=O)c12 , thanks.
False

Also need COc1ccc(C2CC(=O)c3c(O)cc(OC4OC(COC5OC(C)C(O)C(O)C5O)C(O)C(O)C4O)cc3O2)cc1O (stereo not drawn) , thanks.
False

Also need O=C(Nn1cnc2ccccc21)N1CCCC1 , thanks.
False

Also need COc1ccc2nc3cc(Cl)ccc3c(NCCCNC(C)=O)c2c1 , thanks.
True

Also need CCCCCCCCCCCCCCCCNC(=S)N/N=C/c1ccc(OC)cc1 , thanks.
False

Also need O=Nc1ccc(O)c2ccccc12 , thanks.
False

Also need C[C@@H](c1ccc2c(c1)[nH]c1ccc(Cl)cc12)c1nc2ccccc2[nH]1 , thanks.
False

Also need CC(=O)NNC(=O)c1sc(NC(C)=O)nc1C , thanks.
False

Also need CSc1nc(N)n2nccc2n1 , thanks.
False

Also need Cc1c(O)c(N=Nc2ccc(C(=O)O)c(O)c2)c2ccccc2c1O , thanks.
False

Also need COc1cc(-c2nc(/C=C3/C(=O)Nc4ccccc43)c3ccccn23)cc(OC)c1OC , thanks.
False

Also need CCCCCCCCCCCCOC(=O)/C=C\C(=O)NC(N)=O , thanks.
True

Also need CCCOC(=O)c1c(C)n(C)c2scc[n+]12 , thanks.
True

Also need C/C(=C\c1ccc2ccccc2c1)[N+](=O)[O-] , thanks.
True

Also need CCCCCCC(=O)C(C)C , thanks.
False

Also need Cc1ccc(C(C)C)c(OCc2ccc(C(=O)N/N=C/c3cccc(O)c3O)cc2)c1 , thanks.
True
